study_target: Estrogen receptor (Homo sapiens)
assay_method_text: ERF_US_NR_hESR1: Eurofins (ERF) Nuclear Receptor (NR) Cell Based Protein-Protein Interaction LeadHunter Assay for human Estrogen Receptor alpha (ERa) Agonism
Inconclusive results are not listed. Calls of active or inactive are those of the source. Rule for the calls: active = hit-call score of the fitted dose curve at least 0.9, where 1 is the maximum; inconclusive = response in the unintended direction; inactive = score below 0.9.
property_name: AC50

compound=FC(F)(I)C(F)(F)C(F)(F)C(F)(F)C(F)(F)C(F)(F)I study_target="Estrogen receptor (Homo sapiens)" property_name=AC50 result="12.1 µM (active)"
compound=OCCC(F)(F)C(F)(F)C(F)(F)C(F)(F)C(F)(F)C(F)(F)C(F)(F)C(F)(F)F study_target="Estrogen receptor (Homo sapiens)" property_name=AC50 result=inactive
compound=FC(F)(F)C(F)(F)C(F)(F)C(F)(F)CCI study_target="Estrogen receptor (Homo sapiens)" property_name=AC50 result=inactive
compound=C=CC(=O)OCC(F)(F)C(F)(F)C(F)(F)C(F)(F)C(F)(F)C(F)(F)C(F)(F)C(F)F study_target="Estrogen receptor (Homo sapiens)" property_name=AC50 result=inactive
compound="O=C(O)C(F)(OC(F)(F)C(F)(OC(F)(F)C(F)(F)C(F)(F)F)C(F)(F)F)C(F)(F)F (stereo not given)" study_target="Estrogen receptor (Homo sapiens)" property_name=AC50 result=inactive
